Reported values of log10(MIC) for individual entries
Test system: Mycobacterium tuberculosis
Experiment: Antimycobacterial activity against Mycobacterium tuberculosis H37Rv assessed as inhibition of bacterial growth incubated for 5 days by alamar blue assay
Format: functional
Details: 120 h, time 5 day
ENDPOINT_NAME: log10(MIC) (log10 of the value in mg/L)

INSERT INTO assay_data (molecule_smiles, endpoint_name, reading) VALUES
  ('Cc1cc(O)n2nc(N3CCCC3)c(C(=O)Nc3ccc(Cl)c(Cl)c3)c2n1', 'log10(MIC)', 1.40),
  ('Cc1cc(O)n2nc(Nc3ccc(F)cc3)c(C(=O)Nc3cccc(Cl)c3)c2n1', 'log10(MIC)', 1.10),
  ('Cc1cc(O)n2nc(Nc3ccc(Cl)c(Cl)c3)c(C(=O)Nc3cccc(C)c3C)c2n1', 'log10(MIC)', 1.70),
  ('Cc1ccc(Nc2nn3c(O)cc(C)nc3c2C(=O)Nc2ccc(F)c(Cl)c2)cc1', 'log10(MIC)', 1.10),
  ('Cc1cc(O)n2nc(Nc3ccc(Cl)cc3)c(C(N)=O)c2n1', 'log10(MIC)', 1.70),
  ('COc1ccccc1NC(=O)c1c(Nc2cccc(C)c2)nn2c(O)cc(C)nc12', 'log10(MIC)', 0.49),
  ('Cc1cc(O)n2nc(Nc3cccc(C)c3C)c(C(=O)Nc3cccc(Cl)c3)c2n1', 'log10(MIC)', 1.70),
  ('CN[C@@H]1[C@H](O[C@H]2[C@H](O[C@H]3[C@H](O)[C@@H](O)[C@H](N=C(N)N)[C@@H](O)[C@@H]3N=C(N)N)O[C@@H](C)[C@]2(O)C=O)O[C@@H](CO)[C@H](O)[C@H]1O', 'log10(MIC)', 0.80);

====

Assay: Cytotoxicity against African green monkey Vero cells
Assay type: toxicity, cell-based, Chlorocebus sabaeus
Conditions: African green monkey, Vero cells
ENDPOINT_NAME: IC50 (µg/mL)

INSERT INTO measurements (compound, endpoint_name, measure_unit, limit_operator, reading) VALUES
  ('CC(=O)N1N=C(c2ccc3oc(-c4ccc(O)cc4)nc3c2)CC1c1cccs1 (configuration not stated)', 'IC50', 'µg/mL', '=', 32.5),
  ('CC(=O)N1N=C(c2ccc3oc(NC(=O)CCl)nc3c2)CC1c1cccs1 (configuration not stated)', 'IC50', 'µg/mL', '>', 62.5);

====

Test: Cytotoxicity against African green monkey Vero cells assessed as inhibition of cell growth incubated for 72 hrs by MTT assay
Type: toxicity, cell-based, Chlorocebus sabaeus
ENDPOINT_NAME: IC50 at 72 h (µg/mL)

INSERT INTO results (molecule_smiles, measure_unit, reading) VALUES
  ('Cc1cc(O)n2nc(Nc3ccc(Cl)c(Cl)c3)c(C(N)=O)c2n1', 'µg/mL', 29),
  ('COc1ccccc1NC(=O)c1c(Nc2cccc(C)c2)nn2c(O)cc(C)nc12', 'µg/mL', 21.3),
  ('Cc1cc(O)n2nc(Nc3ccc(F)c(F)c3)c(C(=O)Nc3ccc(F)cc3)c2n1', 'µg/mL', 13.6),
  ('Cc1ccc(NC(=O)c2c(Nc3ccc(Cl)cc3)nn3c(O)cc(C)nc23)cc1', 'µg/mL', 21);

====

Assay: Selectivity index, ratio of GI50 for cytotoxicity against human MCF7 cells to MIC for antitubercular activity against active stage of Mycobacterium tuberculosis H37Ra
Assay type: toxicity, cell-based
Conditions: read-out: Selectivity Index
Reported values of selectivity ratio for individual entries
ENDPOINT_NAME: selectivity ratio

INSERT INTO measurements (molecule_smiles, endpoint_name, limit_operator, reading) VALUES
  ('COC(=O)c1ccsc1NC(=O)[C@H]1CCCN1', 'selectivity ratio', '=', 16.5),
  ('CCOC(=O)c1ccsc1NC(=O)[C@@H]1CCCN1', 'selectivity ratio', '>', 27.5),
  ('O=C(OC1CCCCC1)c1ccsc1NC(=O)[C@@H]1CCCN1', 'selectivity ratio', '=', 6.59),
  ('C=CCOC(=O)c1ccsc1NC(=O)[C@@H]1CCCN1', 'selectivity ratio', '=', 4.16),
  ('COC(=O)c1sccc1NC(=O)[C@@H]1CCCN1', 'selectivity ratio', '=', 10.3),
  ('O=C(OCC(F)(F)F)c1ccsc1NC(=O)[C@@H]1CCCN1', 'selectivity ratio', '=', 10.9),
  ('O=C(OCc1ccccc1)c1ccsc1NC(=O)[C@@H]1CCCN1', 'selectivity ratio', '>', 11.8),
  ('O=C(OCC(Cl)(Cl)Cl)c1ccsc1NC(=O)[C@@H]1CCCN1', 'selectivity ratio', '>', 12.3),
  ('COC(=O)c1ccsc1NC(=O)[C@@H]1CCCN1', 'selectivity ratio', '>', 20.9),
  ('O=C1CC[C@@H](COC(=O)c2ccsc2NC(=O)[C@@H]2CCCN2)N1', 'selectivity ratio', '=', 15.6),
  ('O=C(Oc1ccccc1)c1ccsc1NC(=O)[C@@H]1CCCN1', 'selectivity ratio', '>', 10.1);

====

Tested on: Mycobacterium tuberculosis
Assay: Antimycobacterial activity against Mycobacterium tuberculosis H37Rv assessed as inhibition of bacterial growth by resazurin dye based fluorescence analysis
Format: functional
Reported values of MIC for individual entries
ENDPOINT_NAME: MIC (µM)

INSERT INTO measurements (compound, reading) VALUES
  ('N#CCNS(=O)(=O)c1ccc(-c2nnn(Cc3cnccn3)n2)cc1', 0.1),
  ('N#Cc1ccc(Cn2nnc(-c3ccc(S(=O)(=O)NCCO)cc3)n2)cc1', 0.1),
  ('CNS(=O)(=O)c1ccc(-c2nnn(Cc3ccncc3)n2)cc1OC', 0.1),
  ('O=S(=O)(NCCO)c1ccc(-c2nnn(Cc3ccncn3)n2)cc1', 0.1),
  ('N#Cc1ccc(Cn2nnc(-c3ccc(S(=O)(=O)NCCO)cc3)n2)nc1', 0.1),
  ('O=S(=O)(NCCO)c1ccc(-c2nnn(CC3CCOCC3)n2)cc1F', 0.1),
  ('O=S(=O)(NCCO)c1ccc(-c2nnn(Cc3cccnc3)n2)cc1', 0.1),
  ('COc1cc(-c2nnn(Cc3ccc(C#N)cc3)n2)ccc1S(=O)(=O)NCC(N)=O', 0.1),
  ('O=S(=O)(NCCO)c1ccc(-c2nnn(Cc3ccc(Cl)cc3)n2)cc1', 0.1),
  ('N#CCNS(=O)(=O)c1ccc(-c2nnn(CC3CCCCO3)n2)cc1 (configuration not stated)', 0.1),
  ('CCc1ccc(Cn2nnc(-c3ccc(S(=O)(=O)NCCO)cc3)n2)cc1', 0.1),
  ('O=S(=O)(NCCO)c1ccc(-c2nnn(Cc3ccc(F)cn3)n2)c(Cl)c1', 0.1),
  ('O=S(=O)(NCCO)c1ccc(-c2nnn(Cc3ccc(F)cn3)n2)c(F)c1', 0.1),
  ('COC(=O)CNS(=O)(=O)c1ccc(-c2nnn(Cc3ccncc3)n2)cc1', 0.1),
  ('COc1cc(-c2nnn(Cc3ccc(F)cc3)n2)ccc1S(=O)(=O)NCCO', 0.1),
  ('N#CCNS(=O)(=O)c1ccc(-c2nnn(CC3CCOCC3)n2)cc1', 0.1),
  ('Cc1ccc(Cn2nnc(-c3ccc(S(=O)(=O)NCCO)cc3)n2)cn1', 0.1),
  ('Cc1cc(-c2nnn(Cc3ccc(F)cn3)n2)ccc1S(=O)(=O)NCCO', 0.1),
  ('Cc1ccc(Cn2cc(-c3ccc(S(=O)(=O)NCCO)cc3)nn2)nc1', 0.1),
  ('CC(c1ccc(F)cc1)n1nnc(-c2ccc(S(=O)(=O)NCC(N)=O)cc2)n1 (configuration not stated)', 0.1),
  ('COc1cc(-c2nnn(Cc3ccncc3)n2)ccc1S(=O)(=O)NCC#N', 0.1),
  ('COc1ccc(Cn2nnc(-c3ccc(S(=O)(=O)NC[C@@H](C)O)cc3)n2)nc1', 0.1),
  ('NC(=O)CNS(=O)(=O)c1ccc(-c2nnn(Cc3ccc(F)cn3)n2)cc1', 0.1),
  ('COc1ccc(Cn2nnc(-c3ccc(S(=O)(=O)NCCO)cc3)n2)cc1F', 0.1),
  ('N#CNS(=O)(=O)c1ccc(-c2nnn(Cc3ccc(F)cn3)n2)cc1', 0.1),
  ('C[C@H](O)CNS(=O)(=O)c1ccc(-c2nnn(Cc3ccc(F)cc3)n2)cc1', 0.1),
  ('O=S(=O)(NCCO)c1ccc(-c2nnn(CC3CCCCC3)n2)cc1F', 0.1),
  ('C[C@@H](O)CNS(=O)(=O)c1ccc(-c2nnn(Cc3ccc(F)cn3)n2)cc1', 0.1),
  ('C[C@H](c1ccc(F)cn1)n1nnc(-c2ccc(S(=O)(=O)NCCO)cc2)n1', 0.1),
  ('Cc1cc(S(=O)(=O)NCCO)ccc1-c1nnn(CC2CCCCO2)n1 (configuration not stated)', 0.1),
  ('N#Cc1ccc(Cn2cc(-c3ccc(S(=O)(=O)NCCO)cc3)nn2)cc1', 0.1),
  ('COc1cc(-c2nnn(Cc3ccncc3)n2)ccc1S(=O)(=O)NCCO', 0.1),
  ('COc1ccc(Cn2nnc(-c3ccc(S(=O)(=O)NCC(N)=O)cc3)n2)cc1', 0.1),
  ('O=S(=O)(NCCO)c1ccc(-c2nnn(CC3CCCCO3)n2)cc1F (configuration not stated)', 0.1),
  ('C[C@@H](O)CNS(=O)(=O)c1ccc(-c2nnn(Cc3ccncc3)n2)cc1', 0.1),
  ('COc1ccc(Cn2nnc(-c3ccc(S(=O)(=O)NCCO)cc3)n2)nc1', 0.1),
  ('CCOc1ccc(Cn2nnc(-c3ccc(S(=O)(=O)NCCO)cc3)n2)cc1', 0.1),
  ('O=S(=O)(NCCO)c1ccc(-c2nnn(CC3CCC(F)(F)CC3)n2)cc1', 0.1),
  ('NC(=O)CNS(=O)(=O)c1ccc(-c2cn(Cc3ccc(F)cc3)nn2)cc1', 0.1),
  ('COc1cc(-c2nnn(Cc3ccc(F)cn3)n2)ccc1S(=O)(=O)NCCO', 0.1),
  ('NC(=O)CNS(=O)(=O)c1ccc(-c2nnn(CC3CCC(F)(F)CC3)n2)cc1', 0.1),
  ('C[C@@H](O)CNS(=O)(=O)c1ccc(-c2nnn(Cc3ccc(F)cc3)n2)cc1', 0.1);
